- Target system: COUP transcription factor 2 (Homo sapiens) (UniProt P24468)
- Sequence (P24468 whole entry, looked up): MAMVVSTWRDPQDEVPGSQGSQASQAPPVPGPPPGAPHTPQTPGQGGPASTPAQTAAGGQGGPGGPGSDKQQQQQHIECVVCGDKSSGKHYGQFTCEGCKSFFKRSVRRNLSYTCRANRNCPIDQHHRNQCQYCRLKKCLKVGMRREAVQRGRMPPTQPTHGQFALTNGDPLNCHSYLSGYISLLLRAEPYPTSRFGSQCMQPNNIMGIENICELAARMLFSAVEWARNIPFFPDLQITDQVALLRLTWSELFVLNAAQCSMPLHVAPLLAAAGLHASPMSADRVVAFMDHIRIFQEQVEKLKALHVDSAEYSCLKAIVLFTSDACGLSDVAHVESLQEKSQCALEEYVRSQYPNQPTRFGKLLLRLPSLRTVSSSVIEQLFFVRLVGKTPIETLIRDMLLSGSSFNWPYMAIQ
- Assay text: COUP-TFII reporter suppression in human cells – cell-based, luciferase reporter, HEK293T, luminescence, primary screen (AID 686940);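 further: cells cotransfected with COUP-TFII expression vector driving the NGFI-A reporter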
- Protocol conditions: HEK293T NGFI-A luciferase reporter, at 8.6 µM
Out of some 370,000 compounds screened, about 2,600 (0.7%) were called active.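 How the source made its calls: active means inhibition above a per-plate cutoff, mean inhibition of test wells between control levels plus 3 SD (cut at about 38% in these data); inactive means the rest.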 This excerpt belongs to a sample that is enriched for actives.
Valid outcomes are listed here; reply with one: active, inactive

Previously resolved entries follow.
{"Compound": "Cc1nn(C(C)C(=O)N2CCOCC2)c(=O)c2nn(-c3ccccc3)c(C)c12 (stereo unspecified)", "Target system": "COUP transcription factor 2 (Homo sapiens) (UniProt P24468)", "Classification": "inactive"}
{"Compound": "CN(C(=O)CN1CCN(c2cc(-c3ccc(OCc4ccccc4)cc3)ncn2)CC1)c1ccccc1", "Target system": "COUP transcription factor 2 (Homo sapiens) (UniProt P24468)", "Classification": "active"}
{"Compound": "COc1ccc(C(=O)Nc2nc(-c3ccc(S(=O)(=O)N4CCOCC4)cc3)cs2)cc1", "Target system": "COUP transcription factor 2 (Homo sapiens) (UniProt P24468)", "Classification": "active"}
{"Compound": "CC(C)(C)c1ccc(C(=O)Nc2cc(Cl)c(Br)cc2C(=O)O)cc1", "Target system": "COUP transcription factor 2 (Homo sapiens) (UniProt P24468)", "Classification": "inactive"}
{"Compound": "CCCCCc1c(-c2cccc(Br)c2)ncn1CCc1ccccc1OC", "Target system": "COUP transcription factor 2 (Homo sapiens) (UniProt P24468)", "Classification": "inactive"}
{"Compound": "Cc1nn(C(C)C(=O)NCCC2=CCCCC2)c(=O)c2nn(-c3ccccc3)c(C)c12 (stereo unspecified)", "Target system": "COUP transcription factor 2 (Homo sapiens) (UniProt P24468)", "Classification": "inactive"}
{"Compound": "O=C(Nc1cc(Cl)cc(Cl)c1)OCCN1CCCC12CCC(c1ccccc1)CC2 (stereo unspecified)", "Target system": "COUP transcription factor 2 (Homo sapiens) (UniProt P24468)", "Classification": "inactive"}
{"Compound": "Cc1cc(C(=O)COc2ccccc2Cl)c(C)n1C1CC1", "Target system": "COUP transcription factor 2 (Homo sapiens) (UniProt P24468)", "Classification": "inactive"}

Problem: How did this test come out for CCC(=O)Nc1ccc(C(=O)CSc2nnc(CNc3ccc(Cl)cc3)o2)cc1OC ?
Solution: active

Problem: Would you kindly repeat that for CCOC(=O)N1CCN(C(=O)C2CCN(c3ncnc4c3sc3cccc(F)c34)CC2)CC1 ?
Solution: active

Problem: Would you kindly repeat that for CCCCCc1c(-c2ccc(OC)c(OC)c2)ncn1CCc1ccccc1OC ?
Solution: active
